Hi there, I'd appreciate the recorded Selectivity for every entry that follows.
Biological target: pre-pro-human insulin

Q. Look at this protein and give its reported Selectivity. trypsin variant SEQ ID NO: 77 (protein) IVGGYTCAANSIPYQVSLNSGSHRCGGSLINSQWVVSAAHCYKPRIQVRLGEHNIHVLEGNEQFINAAKIITHPNFNGNTLDNDIMLIKLSSPATLNSHVATVSLPTSCAAAGTECLISGWGNTCSSGSSMPSLLQCLKAPVLSDSSCKSSYPGQITGNMICVGFLEGGKDACQGDSGGPVVCNGQLQGIVSSGYGCAQKNKPGVYTKVCNYVNWIQQTIAAN
A. >90%

Q. Thanks! And trypsin variant SEQ ID NO: 7 (protein) IVGGYTCAANSIPYQVSLNSGSHRCGGSLINSQWVVSAAHCYKSRIQVRLGEHNIDVLEGNEQFINAAKIITHPNFNGNTLDNDIMLIKLSSPATLNSWVATVSLPRSCAAAGTECLISGWGNTKSSGSSYPSLLQCLKAPVLSDSSCKSSYPGQITGNMICVGFLEGGKDACQGDSGGPVVCNGQLQGIVSSGYGCAQKNKPGVYTKVCNYVNWIQQTIAAN ?
A. >90%

Q. Next: trypsin variant SEQ ID NO: 84 (protein) IVGGYTCAANSIPYQVSLNSGSHRCGGSLINSQWVVSAAHCYKPRIQVRLGEHNIHVLEGNEQFINAAKIITHPNFNPNTLDNDIMLIKLSSPATLNSNVATVSLPTSCAAAGTECLISGWGNTSSSGSSMPSLLQCLKAPVLSDSSCKSSYPGQITGNMICVGFLEGGKDSCQGDSGGPVVCNGQLQGIVSSGYGCAQKNKPGVYTKVCNYVNWIQQTIAAN
A. >90%
